assay: Terminal volume of distribution in mouse at 5 mg/kg, iv; type: ADME, organism-based; parameters: dose 5 mg/kg, route intravenous; conditions: in vivo, read-out: Vbeta
Readout label: Vd (L/kg)
The reply should be a number in L/kg, with the unit left off.

Vd for Nc1nc2c(c(N3CC[C@@H](N)C3)n1)CCCc1ccccc1-2 ? 131

What does the record list as Vd for CN1CCN(C(=O)c2cc3cc(Cl)ccc3[nH]2)CC1 ? 11

// lookup Vd for Nc1nc2c(c(N3CCNCC3)n1)CCCc1ccccc1-2 88.9

---

assay: Half life in mouse at 2.5 mg/kg, iv; assay type: ADME, organism-based; design: dose 2.5 mg/kg, route intravenous; conditions: in vivo
Readout label: half-life (min)
# output: bare number, implied unit min

Quick check: half-life of CN1CCN(c2cc(-c3ccc(C#N)cc3)nc(N)n2)CC1 ? 12

---

target: Histamine H4 receptor (Mus musculus); assay: Antagonist activity at mouse histamine H4 receptor expressed in HEK293 cells assessed as inhibition of histamine-induced intracellular calcium elevation by FLIPR assay
Sequence (Q91ZY2 whole entry): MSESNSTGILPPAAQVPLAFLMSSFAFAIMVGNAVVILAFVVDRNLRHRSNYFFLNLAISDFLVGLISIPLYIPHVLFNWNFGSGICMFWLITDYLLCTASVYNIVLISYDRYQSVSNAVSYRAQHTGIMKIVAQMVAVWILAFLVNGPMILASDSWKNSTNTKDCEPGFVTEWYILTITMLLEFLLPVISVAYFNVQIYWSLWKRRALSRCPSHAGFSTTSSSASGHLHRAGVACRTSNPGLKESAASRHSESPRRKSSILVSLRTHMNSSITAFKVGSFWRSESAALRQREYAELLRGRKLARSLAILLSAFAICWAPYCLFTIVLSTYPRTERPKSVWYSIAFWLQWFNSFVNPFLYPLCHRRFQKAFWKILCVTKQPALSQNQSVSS
Hi there, I'd appreciate the recorded EC50 for every entry that follows.
# output: bare number, implied unit nM

Endpoint output: EC50 of Nc1nc2c(c(N3CCNCC3)n1)CCCCC2c1ccccc1 (configuration not stated) . Value? 45.7

Item Nc1nc2c(c(N3CC[C@@H](N)C3)n1)CCCc1ccccc1-2 has what recorded EC50? 5.75

Given the entry Nc1nc2c(c(N3CCNCC3)n1)CCCc1ccc(F)cc1-2 , report its measured EC50. 4.79

Entry CN[C@@H]1CCN(c2nc(N)nc3c2CCCc2ccccc2-3)C1 has what EC50? 4.37

Record request: EC50 value, item CNC1CN(c2nc(N)nc3c2CCCc2ccccc2-3)C1 9.12

GET /values?readout=EC50&item= Nc1nc2c(c(N3CCNCC3)n1)CCCc1ccccc1-2 18.2

Data request, read-out EC50, for O=C(c1cc2cc(Cl)ccc2[nH]1)N1CCNCC1 17.8

---

experiment: Half life in mouse at 20 mg/kg, sc; format: ADME, organism-based; set-up: dose 20 mg/kg, route subcutaneous; conditions: in vivo
Readout label: half-life

Item CN1CCN(C(=O)c2cc3cc(Cl)ccc3[nH]2)CC1 has what recorded half-life? 58.2 min

Can you share its half-life? I mean this compound: O=C(c1cc2cc(Cl)ccc2[nH]1)N1CCNCC1 51.6 min

---

assay: Tmax in mouse at 5 mg/kg, iv; format: ADME, organism-based; set-up: dose 5 mg/kg, route intravenous; conditions: in vivo
Consider the following compounds; for each one, report its Tmax.
Number in min, nothing else.

Value lookup for Tmax; key = CN1CCN(C(=O)c2cc3cc(Cl)ccc3[nH]2)CC1 6

Need Tmax of O=C(c1cc2cc(Cl)ccc2[nH]1)N1CCNCC1 , thanks. 30

---

test: Metabolic stability in mouse liver microsomes; assay type: ADME, Microsome
Respond with Met for Stability values of 40 pmol/min/mg and above, Not met for values below.

Could you tell me if the measured Stability of CN1CCN(c2cc(-c3ccc(C#N)cc3)nc(N)n2)CC1 reaches 40 pmol/min/mg or more? Met

Is Stability for Nc1nc2c(c(N3CCNCC3)n1)CCCc1ccc(F)cc1-2 at or above 40 pmol/min/mg? Not met

Tell me whether Stability is at least 40 pmol/min/mg here: CN1CCN(c2cc(-c3ccccc3)nc(N)n2)CC1 Met

Check the entry CN1CCN(c2nc(N)nc3c2CCc2ccccc2-3)CC1 : does Stability equal or exceed 40 pmol/min/mg? Met

In plain terms: is recorded Stability at least 40 pmol/min/mg for O=C(c1cc2cc(Cl)ccc2[nH]1)N1CCNCC1 ? Not met

Decide: is the reported value of Stability for Nc1nc2c(c(N3CCNCC3)n1)CCc1ccccc1-2 equal to or greater than 40 pmol/min/mg? Not met

Test whether the compound Nc1nc2c(c(N3CC[C@@H](N)C3)n1)CCCc1ccccc1-2 records Stability of 40 pmol/min/mg or higher. Not met

Is Stability for CNC1CN(c2nc(N)nc3c2CCCc2ccccc2-3)C1 at or above 40 pmol/min/mg? Not met

Where do these numbers come from? They come from ChEMBL document CHEMBL1140165.
